As a worked illustration, we turn to GI50 data collected for breast cancer (MCF-7).

compound	GI50
OC[C@H]1O[C@@H](n2cnc3c(NCc4ccc(Cl)cc4)ncnc32)[C@@H](O)[C@@H]1O	> 100 µM
OC[C@H]1O[C@@H](n2cnc3c(NCc4ccc(O)cc4)ncnc32)[C@@H](O)[C@@H]1O	> 100 µM
Cc1ccc(CNc2ncnc3c2ncn3[C@@H]2O[C@H](CO)[C@@H](O)[C@@H]2O)cc1	95 µM
OC[C@H]1O[C@@H](n2cnc3c(NCc4ccccc4)ncnc32)C[C@@H]1O [6-benzylamino-9-β-D-deoxyribosylpurine]	> 100 µM

* * *

Below: a set of entries, each annotated with reported GI50 at 72 h.
Test: Calcein AM cytotoxicity assay, MCF-7
Type: cell-based
Conditions: human, MCF-7 breast cancer cells
Procedure: One of the parameters used as the base for cytotoxic analysis is metabolic activity of viable cells, such as microtiter assay, which uses the Calcein AM, is now widely used to quantitate cell proliferation and cytotoxicity. The quantity of reduced Calcein AM corresponds to the number of viable cells in culture. […] At the end of the incubation period, the cells were tested and analysed according to the addition of Calcein AM (Molecular probes) solution and the incubation lasted for next 1 hour. […]

molecule	GI50 at 72 h
COc1cccc(CNc2ncnc3c2ncn3[C@@H]2O[C@H](CO)[C@@H](O)[C@@H]2O)c1	> 100 µM
OC[C@H]1O[C@@H](n2cnc3c(NCc4cccc(Cl)c4)ncnc32)[C@@H](O)[C@@H]1O	> 100 µM
OC[C@H]1O[C@@H](n2cnc3c(NCc4ccco4)ncnc32)[C@@H](O)[C@@H]1O	> 100 µM
OC[C@H]1O[C@@H](n2cnc3c(NCc4cccc(F)c4)ncnc32)[C@@H](O)[C@@H]1O	> 100 µM
OC[C@H]1O[C@@H](n2cnc3c(NCc4ccccc4)ncnc32)[C@@H](O)[C@@H]1O	> 100 µM
OC[C@H]1OC(n2cnc3c(NCc4ccccc4)ncnc32)[C@H](O)[C@@H]1O (stereo partly drawn) [6-benzylaminopurin9-ribosylpurine, 6-benzylamino-9-ribosylpurine, reference compound]	5.4 µM

* * *

Each entry below carries its reported pIC50.
Test system: skin fibroblasts BJ and keratinocytes HaCaT
Test: MTT in vitro cytotoxicity test for skin cells
Format: cell-based
Conditions: MTT, 72 hour treatment, BJ and HaCaT, maximal concentration 50 microM
pIC50: −log10 of the molar value.

substance-smiles	pIC50
OC[C@H]1O[C@@H](n2cnc3c(NCc4ccccc4O)ncnc32)C[C@@H]1O	< 4.30
OC[C@H]1O[C@@H](n2cnc3c(NCc4ccco4)ncnc32)C[C@@H]1O	< 4.30

* * *

# GI50 at 72 h values compiled below
Assay: Calcein AM cytotoxicity assay, NIH3T3
Format: cell-based, mouse
Conditions: mouse, NIH3T3 fibroblasts

compound	GI50 at 72 h
OC[C@H]1O[C@@H](n2cnc3c(NCc4ccco4)ncnc32)[C@@H](O)[C@@H]1O	> 100 µM
OC[C@H]1OC(n2cnc3c(NCc4ccccc4)ncnc32)[C@H](O)[C@@H]1O (stereo partly drawn) [6-benzylaminopurin9-ribosylpurine, 6-benzylamino-9-ribosylpurine, reference compound]	39 µM
OC[C@H]1O[C@@H](n2cnc3c(NCc4cccc(F)c4)ncnc32)[C@@H](O)[C@@H]1O	> 100 µM
OC[C@H]1O[C@@H](n2cnc3c(NCc4ccccc4)ncnc32)[C@@H](O)[C@@H]1O	> 100 µM
OC[C@H]1O[C@@H](n2cnc3c(NCc4cccc(Cl)c4)ncnc32)[C@@H](O)[C@@H]1O	> 100 µM
COc1cccc(CNc2ncnc3c2ncn3[C@@H]2O[C@H](CO)[C@@H](O)[C@@H]2O)c1	> 100 µM
